# Tested on: asymmetric di-methyl PABP1 in RKO cells
# protocol text: In Cell Western (ICW) for asymmetric di-methyl PABP1 and DNA content in RKO cells
# Format: cell-based
# stated conditions: Homo sapiens, RKO, In Cell Western
Quick list: IC50 per entry.
outcome measure: IC50 (µM)

sample smiles	recorded value
CNCCN(C)Cc1cccc(-c2cnc3c(c2)OCC(=O)N3)c1	12.8
CNCCN(C)Cc1cccc(-c2nc(NC3CCOCC3)c3cnn(C4CC4)c3n2)c1	4.87
CCN(Cc1cccnc1)C(=O)c1cc(-c2cccc(CN(C)CCN)c2)nc2c1cnn2C(C)C	3.25
CNCCN(C)Cc1cccc(-c2cc(Nc3ncc(C)s3)c3cnn(C(C)C)c3n2)c1	3.33
C=CCn1ncc2c(C(=O)NCC3CCOCC3)cc(-c3cccc(CN(C)CCNC)c3)nc21	7.15
CNCCN(C)Cc1cccc(-c2cc(C#N)c3cnn(C(C)C)c3n2)c1	20
CNCCN(C)Cc1cccc(-c2cc(-c3ccsc3)c3cnn(C(C)C)c3n2)c1	20
CC(C)n1ncc2c(C(=O)N(C)C3CCOCC3)cc(-c3cccc(CN(C)CCN)c3)nc21	10.3

###

Measured pIC50 of individual entries
# target desc: Human CARM1 (PRMT4) (Homo sapiens)
# Sequence (Q86X55 2-585 isoform Q86X55-1): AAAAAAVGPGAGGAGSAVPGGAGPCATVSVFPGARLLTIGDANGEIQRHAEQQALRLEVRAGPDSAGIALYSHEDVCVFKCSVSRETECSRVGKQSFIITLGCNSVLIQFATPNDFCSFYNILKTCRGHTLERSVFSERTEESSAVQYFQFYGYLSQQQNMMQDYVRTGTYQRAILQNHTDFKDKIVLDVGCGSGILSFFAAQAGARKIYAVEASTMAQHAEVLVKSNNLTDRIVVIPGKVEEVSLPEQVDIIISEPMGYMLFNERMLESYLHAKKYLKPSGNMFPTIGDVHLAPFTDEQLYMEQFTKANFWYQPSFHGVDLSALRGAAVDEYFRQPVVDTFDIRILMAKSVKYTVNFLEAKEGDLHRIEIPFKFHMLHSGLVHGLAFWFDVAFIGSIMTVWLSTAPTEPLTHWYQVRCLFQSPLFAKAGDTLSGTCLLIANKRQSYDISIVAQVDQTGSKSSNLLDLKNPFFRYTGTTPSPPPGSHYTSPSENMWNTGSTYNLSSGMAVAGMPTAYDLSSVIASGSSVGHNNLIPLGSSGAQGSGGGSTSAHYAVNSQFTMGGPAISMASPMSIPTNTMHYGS
pIC50: −log10 of the molar value.

sample smiles	target desc	pIC50
CNCCN(C)Cc1cccc(-c2cc(-c3ccoc3)c3cnn(C(C)C)c3n2)c1	Human CARM1 (PRMT4) (Homo sapiens)	7.55
CNCCN(C)Cc1cccc(-c2cc(C(=O)N(C)Cc3ccccc3)c3cnn(C(C)C)c3n2)c1	Human CARM1 (PRMT4) (Homo sapiens)	7.15
CC(C)n1cnc2cc(-c3ccc(CN(C)CCN)cc3)ccc21	Human CARM1 (PRMT4) (Homo sapiens)	5.00
CNCCN(C)Cc1cccc(-c2cc(NC(=O)OC)c3cnn(C(C)C)c3n2)c1	Human CARM1 (PRMT4) (Homo sapiens)	7.90
CC(C)n1ncc2c(NC(=O)OCc3ccccc3)cc(-c3cccc(CN(C)CCN)c3)nc21	Human CARM1 (PRMT4) (Homo sapiens)	7.86
Cc1cc(C)c(CNC(=O)c2cncc(-c3ccc(CN(C)CCN)cc3)c2)c(=O)[nH]1	Human CARM1 (PRMT4) (Homo sapiens)	5.01
CNCCN(C)Cc1cccc(-c2cc(C(=O)NCC3CCOCC3)c3cnn(CC#N)c3n2)c1	Human CARM1 (PRMT4) (Homo sapiens)	6.61
CNCCN(C)Cc1cccc(-c2cc(C(=O)N[C@@H](C)c3ccccc3)c3cn(Cc4ccccc4F)nc3n2)c1	Human CARM1 (PRMT4) (Homo sapiens)	6.62
CNCCN(C)Cc1cccc(-c2cc(C(=O)NCc3ccccn3)c3cnn(C(C)C)c3n2)c1	Human CARM1 (PRMT4) (Homo sapiens)	7.49
CNCCN(C)Cc1cccc(-c2cc(C(=O)NCc3cccnc3)c3cnn(C(C)C)c3n2)c1	Human CARM1 (PRMT4) (Homo sapiens)	7.80
CNCCN(C)Cc1cccc(-c2nc(C(=O)NCc3cn4ccsc4n3)c3cnn(C4CC4)c3n2)c1	Human CARM1 (PRMT4) (Homo sapiens)	8.05
CCN(c1cc(-c2cccc(CN(C)CCNC)c2)cc(C(=O)NCc2c(C)cc(C)[nH]c2=O)c1C)C1CCOCC1	Human CARM1 (PRMT4) (Homo sapiens)	7.01
CNCCN(C)Cc1cccc(-c2nc(NCc3cnn(C)c3C)c3cnn(C4CC4)c3n2)c1	Human CARM1 (PRMT4) (Homo sapiens)	7.73
C=CCn1ncc2c(C(=O)NCC3CCOCC3)cc(-c3cccc(CN(C)CCNC)c3)nc21	Human CARM1 (PRMT4) (Homo sapiens)	6.83
CNCCN(C)Cc1cccc(-c2cc(OC3CCOCC3)c3cnn(C(C)C)c3n2)c1	Human CARM1 (PRMT4) (Homo sapiens)	7.92
CNCCN(C)Cc1cccc(-c2cc(C(=O)NCCCCC(=O)NCc3c(C)cc(C)[nH]c3=O)c3cnn(C(C)C)c3n2)c1	Human CARM1 (PRMT4) (Homo sapiens)	8.15

###

# target desc: human PRMT1 (Homo sapiens, UniProt Q99873)
# Sequence (Q99873 with tags, fused parts or gaps): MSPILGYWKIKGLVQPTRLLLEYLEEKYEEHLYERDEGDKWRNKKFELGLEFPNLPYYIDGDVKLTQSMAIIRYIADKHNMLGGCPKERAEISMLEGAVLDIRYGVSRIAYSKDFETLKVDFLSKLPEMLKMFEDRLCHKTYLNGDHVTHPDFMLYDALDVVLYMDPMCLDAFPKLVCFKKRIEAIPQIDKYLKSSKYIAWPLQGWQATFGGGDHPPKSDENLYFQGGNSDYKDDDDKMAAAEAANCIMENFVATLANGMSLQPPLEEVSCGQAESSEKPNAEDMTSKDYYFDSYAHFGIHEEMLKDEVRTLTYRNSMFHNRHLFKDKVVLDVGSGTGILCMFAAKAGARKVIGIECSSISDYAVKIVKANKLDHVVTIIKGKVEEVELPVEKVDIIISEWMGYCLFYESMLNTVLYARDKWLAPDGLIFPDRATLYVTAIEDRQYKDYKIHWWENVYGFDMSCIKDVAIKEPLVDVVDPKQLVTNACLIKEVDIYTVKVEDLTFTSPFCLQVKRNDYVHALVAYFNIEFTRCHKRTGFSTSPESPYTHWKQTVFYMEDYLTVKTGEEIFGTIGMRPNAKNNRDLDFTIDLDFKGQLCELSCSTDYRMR
Reported IC50 maps to class as: lower = under 0.1 µM, middle = from 0.1 µM up to 0.4 µM, upper = 0.4 µM and over

molecule	target desc	label value
CN(CCN)Cc1cccc(-c2nc(NCc3nccs3)c3cnn(C4CC4)c3n2)c1	human PRMT1 (Homo sapiens, UniProt Q99873)	lower
CNCCN(C)Cc1cccc(-c2cc(C(=O)NCc3c(F)cccc3F)c3cnn(C(C)C)c3n2)c1	human PRMT1 (Homo sapiens, UniProt Q99873)	middle
Cc1nn(C(C)C)c2nc(-c3cccc(CN(C)CCN)c3)cc(N3CCOCC3)c12	human PRMT1 (Homo sapiens, UniProt Q99873)	lower
CC(C)n1ncc2c(C(=O)NCc3ccccc3)cc(-c3cccc(CNCCN)c3)nc21	human PRMT1 (Homo sapiens, UniProt Q99873)	upper
N#Cc1ccc(-n2cnc3ccc(-c4ccc(CNCCN)cc4)cc32)cc1	human PRMT1 (Homo sapiens, UniProt Q99873)	upper
CCOc1cc(-c2cccc(CN(C)CCNC)c2)nc2c1cnn2C(C)C	human PRMT1 (Homo sapiens, UniProt Q99873)	middle
CNCCN(C)Cc1cccc(-c2cc(N3CCCC(C#N)C3)c3cnn(C(C)C)c3n2)c1 (centres unmarked)	human PRMT1 (Homo sapiens, UniProt Q99873)	middle
CNCCN(C)Cc1cccc(-c2cc(C(=O)N[C@@H](C)c3ccccc3)c3cn[nH]c3n2)c1	human PRMT1 (Homo sapiens, UniProt Q99873)	lower
CCNc1cc(-c2cccc(CN(C)CCNC)c2)nc2c1cnn2C(C)C	human PRMT1 (Homo sapiens, UniProt Q99873)	middle
COC(=O)Nc1cc(-c2cccc(CN(C)CCN)c2)nc2c1cnn2C(C)C	human PRMT1 (Homo sapiens, UniProt Q99873)	middle
CS(=O)(=O)N1CCC(Cn2cnc3ccc(-c4ccc(CNCCN)cc4)cc32)CC1	human PRMT1 (Homo sapiens, UniProt Q99873)	upper
CNCCN(C)Cc1cccc(-c2cc(C(=O)NCCCCC(=O)NCC3CCOCC3)c3cnn(C(C)C)c3n2)c1	human PRMT1 (Homo sapiens, UniProt Q99873)	upper
CC(C)n1cnc2cc(-c3cccc(CN(C)CCN)c3)ccc21	human PRMT1 (Homo sapiens, UniProt Q99873)	middle
CNCCN(C)Cc1cc(-c2cc(C(=O)NC3CCOCC3)c3cnn(C(C)C)c3n2)ccc1F	human PRMT1 (Homo sapiens, UniProt Q99873)	upper

###

# target desc: Human CARM1 (PRMT4) (Homo sapiens, UniProt Q86X55)
Below: a set of entries, each annotated with reported log10 of IC50.
outcome measure: log10 of IC50 (log10 of the value in nM)

compound	target desc	outcome measure	recorded value
CN(CCN)Cc1cccc(-c2cc(C(=O)NC3CCOCC3)cc(N(C)CC3CC3)c2)c1	Human CARM1 (PRMT4) (Homo sapiens, UniProt Q86X55)	log10 of IC50	1.48
CC(C)n1ncc2c(C(=O)NCc3ccccc3F)cc(-c3cccc(CN(C)CCN)c3)nc21	Human CARM1 (PRMT4) (Homo sapiens, UniProt Q86X55)	log10 of IC50	0.92
Cc1cc(C)c(CNC(=O)c2cc(-c3cccc(CNCCN)c3)cc3[nH]ncc23)c(=O)[nH]1	Human CARM1 (PRMT4) (Homo sapiens, UniProt Q86X55)	log10 of IC50	3.14
CNCCN(C)Cc1cccc(-c2cc(NS(=O)(=O)N(C)C)c3cnn(C(C)C)c3n2)c1	Human CARM1 (PRMT4) (Homo sapiens, UniProt Q86X55)	log10 of IC50	1.57
Cc1cc(CNC(=O)c2cc(-c3cccc(CN(C)CCN)c3)nc3c2cnn3C(C)C)no1	Human CARM1 (PRMT4) (Homo sapiens, UniProt Q86X55)	log10 of IC50	1.07
CCn1ncc2c(C(=O)NC3CCOCC3)cc(-c3cccc(CN(C)CCNC)c3)nc21	Human CARM1 (PRMT4) (Homo sapiens, UniProt Q86X55)	log10 of IC50	1.79
COc1ccc(Cn2cnc3ccc(-c4ccc(CNCCN)cc4)cc32)cc1	Human CARM1 (PRMT4) (Homo sapiens, UniProt Q86X55)	log10 of IC50	3.86
CCOC(=O)Nc1cc(-c2cccc(CN(C)CCNC)c2)nc2c1cnn2C(C)C	Human CARM1 (PRMT4) (Homo sapiens, UniProt Q86X55)	log10 of IC50	1.29
CNCCN(C)Cc1cccc(-c2cc(-c3cn[nH]c3)c3cnn(C(C)C)c3n2)c1	Human CARM1 (PRMT4) (Homo sapiens, UniProt Q86X55)	log10 of IC50	1.12
N#Cc1cccc(Cn2cnc3ccc(-c4ccc(CNCCN)cc4)cc32)c1	Human CARM1 (PRMT4) (Homo sapiens, UniProt Q86X55)	log10 of IC50	3.90
CN(CCN)Cc1cccc(-c2ccc(C(=O)NC3CCOCC3)c(N(C)CC3CC3)c2)c1	Human CARM1 (PRMT4) (Homo sapiens, UniProt Q86X55)	log10 of IC50	1.73
CNCCN(C)Cc1cccc(-c2cc(C(=O)N[C@@H](C)c3ccccc3)c3cnn(Cc4cccnc4)c3n2)c1	Human CARM1 (PRMT4) (Homo sapiens, UniProt Q86X55)	log10 of IC50	1.76
CC(C)n1ncc2c(C(=O)NC3CCOCC3)cc(-c3cccc(CN(C)CCNC4CC4)c3)nc21	Human CARM1 (PRMT4) (Homo sapiens, UniProt Q86X55)	log10 of IC50	2.26
CC(C)n1ncc2c(C(=O)NCc3ccncc3)cc(-c3cccc(CN(C)CCN)c3)nc21	Human CARM1 (PRMT4) (Homo sapiens, UniProt Q86X55)	log10 of IC50	0.75
Cc1cc(C)c(CNC(=O)c2cc(-c3ccc(CN(C)CCN4CCCC4)cc3)nc3c2cnn3C(C)C)c(=O)[nH]1	Human CARM1 (PRMT4) (Homo sapiens, UniProt Q86X55)	log10 of IC50	4.70
CNCCN(C)Cc1cccc(-c2cc(C(=O)N3CCC(F)(F)C3)c3cnn(C(C)C)c3n2)c1	Human CARM1 (PRMT4) (Homo sapiens, UniProt Q86X55)	log10 of IC50	2.31
CNCCN(C)Cc1cccc(-c2cc(C(O)c3ccncc3)c3cnn(C(C)C)c3n2)c1 (centres unmarked)	Human CARM1 (PRMT4) (Homo sapiens, UniProt Q86X55)	log10 of IC50	2.40
